Test system Adenosine receptor A2a (Homo sapiens, UniProt P29274), Ki listed for each of the compounds.
Hi! Could you send only the number? It should be in nM, unit omitted.

Examples with answers:
Cc1cc(C(=O)Nc2nccs2)ccc1NC(=O)CC(C)(C)C: 67
CCN(CC)CCCCCCCC(=O)Nc1ccc(C(=O)Nc2nccs2)cc1: 130
CC(C)CCNc1ccc(C(=O)Nc2nccs2)cc1: 730
CCN(CC)CCCCC(=O)Nc1ccc(C(=O)Nc2nccs2)cc1: 830
CC(CCN1CCOCC1)CC(=O)Nc1ccc(C(=O)Nc2nccs2)cc1 (centres undefined): 110
CCN(CC)CCC(C)CC(=O)Nc1ccc(C(=O)Nc2nccs2)cc1 (centres undefined): 110

Here is the next item to consider.
Short answer please: Ki, Adenosine receptor A2a (Homo sapiens, UniProt P29274), entry CC(C)(O)CC(=O)Nc1ccc(C(=O)Nc2nccs2)cc1
1100

---

Target: Cytochrome P450 2C19 (Homo sapiens, UniProt P33261)
Sequence (P33261 whole entry): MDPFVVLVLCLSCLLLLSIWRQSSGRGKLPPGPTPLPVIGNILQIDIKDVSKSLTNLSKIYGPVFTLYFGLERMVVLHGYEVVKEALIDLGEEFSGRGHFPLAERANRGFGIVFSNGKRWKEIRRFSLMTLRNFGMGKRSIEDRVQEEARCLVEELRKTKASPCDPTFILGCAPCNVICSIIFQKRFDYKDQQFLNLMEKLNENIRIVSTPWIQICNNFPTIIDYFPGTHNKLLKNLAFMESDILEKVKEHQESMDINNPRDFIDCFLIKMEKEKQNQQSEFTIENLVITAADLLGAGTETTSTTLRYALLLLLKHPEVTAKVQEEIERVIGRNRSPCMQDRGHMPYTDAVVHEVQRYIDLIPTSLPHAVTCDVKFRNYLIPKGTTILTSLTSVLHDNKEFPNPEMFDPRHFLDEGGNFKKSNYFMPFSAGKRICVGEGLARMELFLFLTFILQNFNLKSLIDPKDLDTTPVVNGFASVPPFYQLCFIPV
pIC50: −log10 of the molar value.
recordedMetric: pIC50

Fill blank: measured pIC50 of the molecule CC(CCN1CCOCC1)CC(=O)Nc1ccc(C(=O)Nc2nccs2)cc1 (stereo unspecified) is ____.
< 4.40

---

Target: Cytochrome P450 2D6 (Homo sapiens, UniProt P10635)
Sequence (P10635 whole entry): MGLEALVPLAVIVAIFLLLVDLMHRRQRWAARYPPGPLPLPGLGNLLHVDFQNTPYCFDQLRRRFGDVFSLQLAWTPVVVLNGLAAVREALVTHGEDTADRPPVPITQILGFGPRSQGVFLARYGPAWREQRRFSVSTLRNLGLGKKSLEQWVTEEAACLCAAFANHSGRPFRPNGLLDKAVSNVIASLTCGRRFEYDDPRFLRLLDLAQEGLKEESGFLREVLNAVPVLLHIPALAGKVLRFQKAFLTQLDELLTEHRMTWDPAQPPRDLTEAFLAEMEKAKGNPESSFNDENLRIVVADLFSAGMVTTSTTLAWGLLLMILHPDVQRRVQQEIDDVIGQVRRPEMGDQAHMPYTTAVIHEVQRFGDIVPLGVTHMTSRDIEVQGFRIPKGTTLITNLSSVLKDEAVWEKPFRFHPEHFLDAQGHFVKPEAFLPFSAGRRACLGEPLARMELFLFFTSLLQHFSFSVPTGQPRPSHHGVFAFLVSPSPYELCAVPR
recordedMetric: pIC50
Please express pIC50 as -log10 of the molar concentration.

Short answer please: pIC50, Cytochrome P450 2D6 (Homo sapiens, UniProt P10635), entry CC(CCN1CCOCC1)CC(=O)Nc1ccc(C(=O)Nc2nccs2)cc1 (stereo unspecified)
4.74

---

Test: Aqueous solubility of the compound
Assay type: physicochemical
Settings: buffer
recordedMetric: solubility (µg/mL)
Hi! Could you send only the number? It should be in µg/mL, unit omitted.

Fill blank: measured solubility of the compound CC(C)(C)CC(=O)Nc1ccc(C(=O)Nc2nccs2)nc1 is ____.
10

---

Assay: Intrinsic clearance in human liver microsomes
Assay type: ADME
Conditions: read-out: CLH (converted)
recordedMetric: CLint scaled (mL/min/kg)
Hi! Could you send only the number? It should be in mL/min/kg, unit omitted.

Fill blank: measured CLint scaled of the molecule CC(CCN1CCOCC1)CC(=O)Nc1ccc(C(=O)Nc2nccs2)cc1 (stereo unspecified) is ____.
10.3
